Reference source for all entries: PubChem BioAssay (NCI)

tested on: SF-295 CNS; experiment: NCI-60 one-dose screen, 48 h; conditions: 10 µM unless noted
The panel holds about 83,000 compounds, 20% with a hit somewhere; the sample as a whole holds those more often. Calls of active or inactive are those of the source. Rule for the calls: active = growth percent below 10; inactive = the rest.
Hi there, use one of these labels in your reply, thanks! active, inactive

Use the examples below as a reference point.
1) O=C(Nc1ccccc1CNc1nc(Nc2ccc(OCCN3CCCC3)cc2)ncc1Cl)NC1CCCCC1: inactive
2) Cc1c(C)c2c(c(C)c1OC(=O)CCC(=O)[O-])CCC(C)(CCCCCCCCCCC[P+](c1ccccc1)(c1ccccc1)c1ccccc1)O2 (stereo not drawn): active
3) COc1ccc(C2=NN3C(C2)c2cc(Br)ccc2OC3c2ccncc2)cc1 (stereo not drawn): inactive

Attention now shifts to the item below.
[Q] Look up the recorded call for CCN(CC)CCCNC(=O)c1c2c(n3ccccc13)C(=O)c1ncccc1C2=O in this test.
[A] active

----------
tested on: SF-295 CNS; assay: NCI-60 one-dose screen, 48 h (100 = growth as untreated, 0 = no growth, -100 = all killed); settings: 10 µM unless noted
About 83,000 compounds went through this panel and 20% of them were active in at least one assay; those are over-represented in the sample as a whole.
Listed here are molecules together with their documented growth.
Output spec: scalar in %, unitless text.

Sample records with growth:
1) Cc1ccc2c(c1)CC(O)CC1C(=O)N(CCO)CC(=O)N21 (stereo not given): 101
2) CN1CCN(Cc2ccc(NC(=O)c3cncc(C#Cc4cnc(N)c5ncccc45)c3)cc2Cl)CC1: 101
3) O=C1c2c(c3c4cc(F)ccc4oc3c3[nH]c4ccccc4c23)C(=O)N1O: 55.7
4) NCCNc1ccc([N+](=O)[O-])cc1: 128

[Q] Quote growth reported for COc1cccc(NC(=O)c2sc3nc(C)c(C(=O)c4ccccc4)cc3c2N)c1 please.
[A] 67.3

----------
system: SF-268 CNS; assay: NCI-60 one-dose screen, 48 h; settings: 10 µM unless noted
This is part of a sample that, as a whole, favours compounds with a hit. Of some 83,000 tested, about 20% had one in any assay. The source made the active and inactive calls. Rule for the calls: active = growth percent below 10; inactive = the rest.
I would appreciate it if you answered using one of these outcomes: active, inactive

For orientation, consider the following solved cases.
1) CN(C)CCOc1nc2c3cc([N+](=O)[O-])ccc3nn2c2ccccc12: inactive
2) COc1ccccc1NC(=O)n1c(=O)cc(C)c2ccc(O)cc21: inactive
3) N/C(=N\c1nc2ccccc2s1)NC(=O)Nc1ccccc1: inactive
4) CN1C(=O)N(C)C2C1NN=c1s/c(=C\c3ccccc3F)c(=O)n12 (stereo not drawn): inactive
5) COC(=O)[C@H](C)NC(=O)[C@@H]1CCCN1C(=O)CNC(=O)[C@H](C)N: inactive

[Q] Hi team, can someone confirm the assay call for COc1cc(OC)cc(C(=O)Nc2cnc(Nc3ccc(N4CCOCC4)nc3)nc2Oc2ccc(C(F)(F)F)cc2)c1 ?
[A] inactive

[Q] Hi, sorry to bother you, what did the test record for COc1cc2c(cc1OC)CC[N+](CCC[N+](C)(C)C)=C2 ?
[A] inactive

[Q] Record request — test call for CCOC(=O)c1c(NC(=S)Nc2ccc([N+](=O)[O-])cc2)sc2c1CCCCC2
[A] inactive

[Q] Please state the recorded outcome for this molecule: CCOc1ccccc1NC(=O)CCC(=O)OC
[A] inactive

[Q] // outcome(item) with item = Oc1ccc(Cc2ccc(O)c3ncccc23)c2cccnc12
[A] inactive

[Q] Hi, sorry to bother you, what did the test record for CN1C(=O)N(C)C2C1NN=c1s/c(=C\c3ccc(F)cc3)c(=O)n12 (stereo not drawn) ?
[A] inactive

[Q] // return assay outcome for [2H]C([2H])([2H])Oc1c(F)cccc1/C=C/C(=O)/C=C(O)/C=C/c1cccc(F)c1OC([2H])([2H])[2H]
[A] inactive

[Q] Outcome? CC(=O)OCCOc1cc(Cl)c(Cl)cc1Cl
[A] inactive

[Q] Hey, what did the test say about CCCCCCCCNC(=O)[C@@H](N)CSCOC(C)=O ?
[A] active

[Q] Per the records of this test, what outcome belongs to Cc1cc(N2CCOCC2)nc(N(CCCNc2ccnc3cc(Cl)ccc23)Cc2ccc3c(c2)OCO3)n1 ?
[A] inactive

[Q] For COc1cc(/C=C2\CN(S(=O)(=O)c3ccc(C)cc3)C/C(=C\c3cc(CN4CCCC4)c(O)c(OC)c3)C2=O)cc(CN2CCCC2)c1O , what call appears in the results of this test?
[A] active

----------
tested on: LOX IMVI melanoma; assay: NCI-60 one-dose screen, 48 h; settings: 10 µM unless noted
This is part of a sample that, as a whole, favours compounds with a hit. Of some 83,000 tested, about 20% had one in any assay. Active and inactive are the calls of the source. How the source made its calls: active means growth percent below 10; inactive means the rest.
Pick from 1 = active, 0 = inactive when you respond.

1) CC(C)n1nc(-c2ccc3oc(N)nc3c2)c2c(N)ncnc21: 1

[Q] Please state the recorded outcome for this compound: COC(=O)[C@H](C)NC(=O)[C@@H]1CCCN1C(=O)CNC(=O)[C@H](C)N
[A] 0

[Q] Fill in: this test's call for COC(=O)c1sc(-c2ccc(C)cc2)cc1O is ___
[A] 0

[Q] Can you look up the reported call for COC(=O)c1ccc(-n2cc(CCCOS(=O)(=O)c3ccc(F)cc3)nn2)cc1 for me?
[A] 0

[Q] Could you please tell me the result logged for CSc1nn2c(-c3cc4cc(Br)ccc4oc3=O)ccnc2c1C#N in this assay?
[A] 0

----------
test system: RPMI-8226 leukemia; test: NCI-60 one-dose screen, 48 h; details: 10 µM unless noted
The panel holds about 83,000 compounds, 20% with a hit somewhere; the sample as a whole holds those more often. The source made the active and inactive calls. Rule for the calls: active = growth percent below 10; inactive = the rest.
Hello, when you answer, please use one of the following outcomes: 1.0 = active, 0.0 = inactive

[Q] So what was the verdict on COC(=O)c1nc(-c2ccccc2)oc1S(=O)(=O)NCC(c1ccc(Cl)cc1)N1CCCCC1 (stereo not drawn) in this test?
[A] 0.0

[Q] I'd appreciate the recorded outcome for CCN1C(=O)N(CC)C2C1NN=c1s/c(=C\c3ccccc3)c(=O)n12 (stereo not drawn) from this test.
[A] 0.0

[Q] Outcome? COc1ccc(Nc2nc(Nc3cc(C)[nH]n3)c3cc(OC)c(OC)cc3n2)cc1
[A] 1.0

[Q] Please indicate how the test categorized COc1ccc(/C=C\c2cc(OC)c(OC)c(OC)c2)cc1OCC(=O)Nc1nc2ccccc2s1 .
[A] 0.0

[Q] Recorded test call requested for CNC(=O)c1cc(Oc2cccc3nc(NC(=O)Nc4ccc(F)cc4F)ccc23)ccn1
[A] 0.0

[Q] What outcome does the record of this test show for N#CSCc1cc(Cl)c(CSC#N)cc1Cl ?
[A] 0.0

[Q] Hello, I am checking results. What call was entered for CC(Cc1cccc2ccccc12)C(N)=O (stereo not drawn) ?
[A] 0.0

[Q] Could you please tell me the result logged for COCCn1cc(-c2nc(-c3cc4cccnc4n3C)cs2)c2cc(OC)ccc21 in this assay?
[A] 0.0

[Q] GET /call?item= Cc1c(CC(=O)Nc2ccccc2)nnn1-c1ccccc1 returns the recorded outcome of this test.
[A] 0.0

----------
Tested on: MALME-3M melanoma
Assay: NCI-60 one-dose screen, 48 h (100 = growth as untreated, 0 = no growth, -100 = all killed)
Details: 10 µM unless noted
Experimental: Cells are grown in 96 well plates and exposed to the test compound for 48 hours. Compounds are tested at a single concentration, which is 10^-5 M for most compounds. The reported endpoint is percent growth (GI% or GIPRCNT), where numbers from 0 - 100% represent growth inhibition, and numbers from -100% - 0 represent cell death. For example, a value of 40 represents 60% growth inhibition. A value of 0 means no net growth occurred over the course of the experiment. […]
Compounds without any hit were thinned out: in the full panel of roughly 83,000, 20% have a hit.
Tag: Yes if measured growth is not below 80%, No if it is.

Previously resolved entries follow.
1) Cn1cc(-c2nc(-c3c[nH]c4ccncc34)cs2)c2cc(F)ccc21: No
2) COc1cc(/C=C2\CN(S(=O)(=O)c3ccc(C)cc3)C/C(=C\c3cc(CN4CCCC4)c(O)c(OC)c3)C2=O)cc(CN2CCCC2)c1O: No
3) COC(=O)c1sc(-c2ccc(C)cc2)cc1O: Yes
4) O=C1/C(=C/c2ccc(-c3ccc(Cl)cc3)o2)SC(=S)N1CCc1ccc(O)cc1: No
5) CCCCCN(CCCCC)CC(O)c1c(Cl)ccc2ccccc12 (stereo not given): Yes

[Q] Is reported growth greater than or equal to 80% here: c1ccc(-c2nc(N3CCNCC3)c3oc(-c4ccccc4)nc3n2)cc1
[A] No

[Q] Hi, just wondering whether Cc1ccc(OCCOCCOCCOCCOc2ccc(C)n(O)c2=S)c(=S)n1O shows growth of 80% or higher.
[A] No

[Q] Given CCOC(=O)C1=CCC(n2cc(F)c(=O)[nH]c2=O)O1 (stereo not given) , state whether its growth is at least 80%.
[A] Yes

[Q] Decide: growth of COC(=O)c1nc(-c2ccc(C)cc2)oc1N1CCOCC1 >= 80%?
[A] Yes

[Q] Please check the record COc1cccc2cc(N(C)c3ncnc4ccccc34)ccc12 and state if its growth is at or above 80%.
[A] No

[Q] # bool: growth of NC(=N\N=C/c1ccc(Cl)cc1Cl)/C(N)=N\N=C/c1ccc(Cl)cc1Cl >= 80%
[A] Yes

[Q] Hi team, for c1ccc2[nH]c(-c3ccc(-c4nccc5c4[nH]c4ccccc45)cc3)nc2c1 , is the recorded growth at or above 80%?
[A] Yes

[Q] State whether the measured growth reaches 80%, counting equality as reaching it, for C=C(CNCCc1ccc(O)cc1)[C@@H]1CC[C@]2(CO)CC[C@]3(C)[C@H](CC[C@@H]4[C@@]5(C)CCC(N)C(C)(C)[C@@H]5CC[C@]43C)[C@@H]12 (stereo not given in full)
[A] No

[Q] Determine whether measured growth meets or exceeds 80% for CS(=O)(=O)c1cccc(Nc2ncc3cc(-c4ccccc4Cl)ccc3n2)c1
[A] No

[Q] Assess whether reported growth for CCOC(=O)c1cc(C(=O)c2cc(OC)cc(OC)c2)n2ccccc12 sits at 80% or higher.
[A] No
